- System: NCI-H322M lung
- method_notes: NCI-60 one-dose screen, 48 h (100 = growth as untreated, 0 = no growth, -100 = all killed)
- cond: 10 µM
Compounds without any hit were thinned out: in the full panel of roughly 83,000, 20% have a hit.
So basically, if growth comes in under 90% it's fulfilled, and if it's 90% or more it's not fulfilled.

Q: Does the reported growth of the following compound sit strictly below 90%? "O=C(O)c1cc(C(F)(F)F)cc(C(F)(F)F)c1"
A: not fulfilled

Q: Does the reported growth of the following compound sit strictly below 90%? "CCOC(=O)c1cc2c(n1Cc1cc(OC)cc(OC)c1)-c1oncc1CC2"
A: fulfilled

Q: Does the reported growth of the following compound sit strictly below 90%? "COc1cc(Cn2c(-c3ccccc3)cc3c2-c2oncc2CC3)cc(OC)c1"
A: fulfilled

Q: Does the reported growth of the following compound sit strictly below 90%? "FC(F)(F)c1ccc(-c2cnc(Br)nc2NC2CCCCCC2)cc1"
A: fulfilled

Q: Does the reported growth of the following compound sit strictly below 90%? "CCOC(=O)c1cc2c(n1Cc1cccc(OC)c1)-c1oncc1CC2"
A: fulfilled

Q: Does the reported growth of the following compound sit strictly below 90%? "NC(N)=NS(=O)(=O)c1ccc(Nc2ccc3nnc(-c4ccncc4)n3n2)cc1"
A: not fulfilled

Q: Does the reported growth of the following compound sit strictly below 90%? c1ccc(CC(NCCNC(Cc2ccccc2)c2ccccc2)c2ccccc2)cc1 (configuration not stated)
A: fulfilled

Q: Does the reported growth of the following compound sit strictly below 90%? "CCOC(=O)c1sc(NC(=O)c2cc(OC)c(OC)c(OC)c2)nc1C"
A: not fulfilled

Q: Does the reported growth of the following compound sit strictly below 90%? "COc1ccc(-c2cc(/C=C3\C(=O)Nc4cc(Cl)ccc43)[nH]n2)cc1"
A: fulfilled

Q: Does the reported growth of the following compound sit strictly below 90%? "O=CNc1c(Cl)cc2c(c1Cl)Cc1cc([N+](=O)[O-])ccc1-2"
A: fulfilled

Q: Does the reported growth of the following compound sit strictly below 90%? "COc1ccc(OC)c([N+](=O)[O-])c1C=O"
A: not fulfilled

Q: Does the reported growth of the following compound sit strictly below 90%? "COc1ccc(-c2nc3sc(-c4ccccc4)c(-c4ccccc4)n3c2/C=C/c2ccc(F)cc2)cc1"
A: not fulfilled

Q: Does the reported growth of the following compound sit strictly below 90%? "COc1ccc(/C=C2\SC(=S)N(CCCN3CCOCC3)C2=O)c(OC)c1"
A: not fulfilled

Q: Does the reported growth of the following compound sit strictly below 90%? "CC(C)(C)c1ccc(OCCCCCCN2CCNCC2)cc1"
A: fulfilled

Q: Does the reported growth of the following compound sit strictly below 90%? "Oc1ccc(Cn2cc3c(c2-c2ccccc2)CCc2cnoc2-3)cc1"
A: not fulfilled

Q: Does the reported growth of the following compound sit strictly below 90%? "CCc1ccc(-c2nnc(COc3ccc(-c4nc5cc(Cl)c(Cl)cc5[nH]4)cc3OC)o2)cc1"
A: fulfilled

Q: Does the reported growth of the following compound sit strictly below 90%? "COc1ccc(Cn2cc3c(c2-c2cc(OC)c(OC)c(OC)c2)CCc2cnoc2-3)cc1[N+](=O)[O-]"
A: fulfilled

Q: Does the reported growth of the following compound sit strictly below 90%? "Cc1ccc([P+](Cc2ccccc2)(c2ccccc2)c2ccccc2)cc1"
A: fulfilled

Q: Does the reported growth of the following compound sit strictly below 90%? "O=C1/C(=C/c2ccc(O)cc2)Oc2ccc(Cl)cc21"
A: fulfilled

Q: Does the reported growth of the following compound sit strictly below 90%? "COc1cc(OC)cc(-c2n/c(=C\c3c(O)[nH]c4ccc(OC)cc34)cc3c2=Nc2ccccc2-3)c1"
A: not fulfilled
